Values compiled from paper PMC7294809.

# Experiment summary: CHI LogD measurement
# Assay type: physicochemical
# Condition info: chromatographic hydrophobicity index
Each item that follows carries a reported chromatographic logD.
Please respond with just the number, no unit label.

Check out these entries, answers already filled in.
Q. Give its chromatographic logD value. Item: COC(=O)CNc1nc(Nc2ccc(F)c(F)c2)nc2c1cnn2C
A. 2.17

Q. For the compound CNC(=O)CNc1nc(Nc2ccc(F)c(F)c2)nc2c1cnn2C , what chromatographic logD is on record?
A. 1.38

Q. I'd like to know its chromatographic logD. The compound in question is Cn1ncc2c(N3CCCCC3)nc(Nc3ccc(F)c(F)c3)nc21
A. 3.93

Q. // returns reported chromatographic logD for input Cn1ncc2c(N3CCC[C@H]3CO)nc(Nc3ccc(F)c(F)c3)nc21
A. 2.43

Q. # lookup: chromatographic logD of COC(=O)C(Cc1c[nH]cn1)Nc1nc(Nc2ccc(F)c(F)c2)nc2c1cnn2C (stereo not drawn)
A. 3.63

Others:
Q. Need chromatographic logD, item CNc1nc(Nc2ccc(F)c(F)c2)nc2c1cnn2C
A. 2.31

Q. Entry Cn1ncc2c(NCCO)nc(NC3CCOCC3)nc21 : reported chromatographic logD = ?
A. 0.04

Q. # query: chromatographic logD of entry COC(=O)C1(Nc2nc(Nc3ccc(F)c(F)c3)nc3c2cnn3C)CC1
A. 4.91

Q. What chromatographic logD value was documented for this compound, Cn1ncc2c(NCCO)nc(N3CCCCC3)nc21 ?
A. 1.49

----------
# Target of assay: LdMetRS (Leishmania donovani, UniProt A0A3Q8IBX2)
# Sequence (A0A3Q8IBX2 entry or part of it): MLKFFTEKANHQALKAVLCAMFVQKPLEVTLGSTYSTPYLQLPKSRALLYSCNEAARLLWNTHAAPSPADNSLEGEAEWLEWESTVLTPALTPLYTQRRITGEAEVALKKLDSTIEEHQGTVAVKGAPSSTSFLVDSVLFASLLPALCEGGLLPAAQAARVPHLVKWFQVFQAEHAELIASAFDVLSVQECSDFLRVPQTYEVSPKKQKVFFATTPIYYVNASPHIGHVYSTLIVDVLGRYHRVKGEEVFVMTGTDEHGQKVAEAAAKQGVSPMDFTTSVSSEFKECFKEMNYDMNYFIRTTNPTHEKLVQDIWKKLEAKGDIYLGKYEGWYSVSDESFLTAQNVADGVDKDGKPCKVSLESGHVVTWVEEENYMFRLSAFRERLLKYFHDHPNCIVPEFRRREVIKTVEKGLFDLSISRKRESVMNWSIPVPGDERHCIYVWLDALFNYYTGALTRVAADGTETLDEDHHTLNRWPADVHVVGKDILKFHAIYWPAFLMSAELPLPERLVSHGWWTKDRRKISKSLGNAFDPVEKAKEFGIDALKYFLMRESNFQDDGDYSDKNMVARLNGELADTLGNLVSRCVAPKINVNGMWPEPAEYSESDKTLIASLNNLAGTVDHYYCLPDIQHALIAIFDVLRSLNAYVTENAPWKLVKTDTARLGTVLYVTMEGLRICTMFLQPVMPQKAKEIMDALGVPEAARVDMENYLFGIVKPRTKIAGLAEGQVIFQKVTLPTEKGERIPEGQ
# Experiment summary: LdMetRS BIOMOL Green biochemical assay, 10-point dose response
# Condition info: LdMetRS pIC50, both substrate concentrations increased to 500 µM
Experimental endpoint: pIC50
Notebook: values listed as pIC50 are -log10 of the concentration (mol/L).

Q. // query pIC50 value for entry COC(=O)CNc1nc(Nc2ccc(F)c(F)c2)nc2c1cnn2C
A. 5.85

----------
# Experiment summary: Aqueous solubility, filtration-based method
# Format: physicochemical
# Condition info: aqueous buffer, kinetic from dmso stock; phosphate-buffered saline pH 7.4, 24 h, 25 °C
Experimental endpoint: solubility at 24 h (µM)
API: value field is a number in µM; no unit string.

Q. // solubility at 24 h lookup, key: COC(=O)[C@H](Nc1nc(Nc2ccc(F)c(F)c2)nc2c1cnn2C)C(C)C [Compound 29]
A. 39.1

Q. Using the record for Cn1ncc2c(NC3CCOCC3)nc(Nc3ccc(F)c(F)c3)nc21 [Compound 23] , report its solubility at 24 h.
A. 0.59

More entries:
Q. Given the compound Cn1ncc2c(Nc3ccc(F)c(F)c3)nc(Nc3ccc(F)c(F)c3)nc21 [Compound 17] , what is its reported solubility at 24 h?
A. 0.38

Q. Quick one: solubility at 24 h for Cn1ncc2c(N3CCCCC3)nc(Nc3ccc(F)c(F)c3)nc21 [Compound 24] ?
A. 0.46

Q. Quick one: solubility at 24 h of COC(=O)C(Cc1c[nH]cn1)Nc1nc(Nc2ccc(F)c(F)c2)nc2c1cnn2C (stereo not drawn) [Compound 31] ?
A. 128

Q. What value of solubility at 24 h has been reported for the following compound? CNc1nc(Nc2ccc(F)c(F)c2)nc2c1cnn2C [Compound 18]
A. 58

Q. Dear colleague, I am looking for the recorded solubility at 24 h of the following compound: CN(CCO)c1nc(Nc2ccc(F)c(F)c2)nc2c1cnn2C [Compound 20]
A. 2.4

Q. # lookup: solubility at 24 h of COC(=O)CNc1nc(Nc2ccc(F)c(F)c2)nc2c1cnn2C [Compound 27]
A. 5.5

Q. For the compound COC(=O)[C@@H](CO)Nc1nc(Nc2ccc(F)c(F)c2)nc2c1cnn2C [Compound 30] , what solubility at 24 h is on record?
A. 29.8

----------
# Target of assay: LdMetRS (Leishmania donovani, UniProt A0A3Q8IBX2)
# Experiment summary: LdMetRS mode of inhibition studies
# Format: biochemical
# Condition info: Ki, LdMetRS, varied substrate ATP; fit to eq 7, ± SE of fit
Measured pKi, listed per entry for reference.
# log scale: pKi equals minus log10 of the concentration in mol/L

Q. Looking for the measured pKi of CN(C)c1nc(Nc2ccc(F)c(F)c2)nc2c1cnn2C , can you help?
A. 5.92

Kindly consider the entry below.
Q. Form field: reported pKi of COC(=O)CNc1nc(Nc2ccc(F)c(F)c2)nc2c1cnn2C
A. 5.80

----------
# Target of assay: LdMetRS (Leishmania donovani, UniProt A0A3Q8IBX2)
# Experiment summary: LdMetRS BIOMOL Green biochemical assay, 10-point dose response
# Condition info: 50 μM methionine, 100 μM ATP, 50 nM LdMetRS; pIC50 = −log IC50 (M); read-out: LdMetRS pIC50 (converted)
Experimental endpoint: IC50 (M)
Answer format: numeric, M implied, no suffix.

Q. Entry under review: COCCNc1nc(Nc2ccc(F)c(F)c2)nc2c1cnn2C . Reported IC50?
A. 6.31e-06

Q. Quick one: IC50 of CN(CCO)c1nc(Nc2ccc(F)c(F)c2)nc2c1cnn2C ?
A. 2.51e-06

Q. Name the reported IC50 value associated with the compound Cn1ncc2c(NCCO)nc(Nc3ccc(F)cc3)nc21
A. 2.51e-05

Q. What IC50 value was documented for this compound, Cn1ncc2c(N3CCC[C@H]3CO)nc(Nc3ccc(F)c(F)c3)nc21 ?
A. 7.94e-06

Q. Any idea what its IC50 is? The compound is Cc1noc(CNc2nc(Nc3ccc(F)c(F)c3)nc3c2cnn3C)n1
A. 6.31e-06

Q. Give its IC50 value. Item: CNc1nc(Nc2ccc(F)c(F)c2)nc2c1cnn2C
A. 6.31e-06

Q. Look up IC50 for this compound: CNC(=O)CNc1nc(Nc2ccc(F)c(F)c2)nc2c1cnn2C
A. 2e-05

Q. Please give the measured IC50 for this compound: Cn1ncc2c(NC3CCCCC3O)nc(Nc3ccc(F)c(F)c3)nc21 (centres unmarked)
A. 3.98e-06

Q. Reported IC50 for Cn1ncc2c(NCCO)nc(Nc3cccc(Cl)c3)nc21 : what is it?
A. 1.26e-05

Q. Can you look up the measured IC50 of COC(=O)[C@H](Nc1nc(Nc2ccc(F)c(F)c2)nc2c1cnn2C)C(C)C for me?
A. 7.94e-07

Q. Query: IC50; subject: Cn1ncc2c(NCCO)nc(Nc3ccc(F)cc3F)nc21
A. 1.26e-05

Q. Reported IC50, compound COC(=O)C1(Nc2nc(Nc3ccc(F)c(F)c3)nc3c2cnn3C)CC1 : ____
A. 7.94e-07

Q. // returns reported IC50 for input COC(=O)C(Cc1c[nH]cn1)Nc1nc(Nc2ccc(F)c(F)c2)nc2c1cnn2C (centres unmarked)
A. 2e-07

Q. Which measured IC50 value corresponds to Cn1ncc2c(NC3CCOCC3)nc(Nc3ccc(F)c(F)c3)nc21 ?
A. 7.94e-06

Q. Given Cn1ncc2c(NCCO)nc(Nc3cccc(F)c3)nc21 , state its recorded IC50.
A. 3.16e-05

Q. Give its IC50 value. Item: Cn1ncc2c(NCCO)nc(Nc3ccc(F)c(F)c3)nc21
A. 1.26e-05

Q. Given the entry Cn1ncc2c(NCCO)nc(Nc3ccc(Cl)cc3)nc21 , report its measured IC50.
A. 7.94e-06

Q. Bench note: what IC50 did COC(=O)[C@@H](CO)Nc1nc(Nc2ccc(F)c(F)c2)nc2c1cnn2C show?
A. 1.26e-06

----------
# Target of assay: TcMetRS (Trypanosoma cruzi)
# Sequence (Q4D6H2 entry or part of it): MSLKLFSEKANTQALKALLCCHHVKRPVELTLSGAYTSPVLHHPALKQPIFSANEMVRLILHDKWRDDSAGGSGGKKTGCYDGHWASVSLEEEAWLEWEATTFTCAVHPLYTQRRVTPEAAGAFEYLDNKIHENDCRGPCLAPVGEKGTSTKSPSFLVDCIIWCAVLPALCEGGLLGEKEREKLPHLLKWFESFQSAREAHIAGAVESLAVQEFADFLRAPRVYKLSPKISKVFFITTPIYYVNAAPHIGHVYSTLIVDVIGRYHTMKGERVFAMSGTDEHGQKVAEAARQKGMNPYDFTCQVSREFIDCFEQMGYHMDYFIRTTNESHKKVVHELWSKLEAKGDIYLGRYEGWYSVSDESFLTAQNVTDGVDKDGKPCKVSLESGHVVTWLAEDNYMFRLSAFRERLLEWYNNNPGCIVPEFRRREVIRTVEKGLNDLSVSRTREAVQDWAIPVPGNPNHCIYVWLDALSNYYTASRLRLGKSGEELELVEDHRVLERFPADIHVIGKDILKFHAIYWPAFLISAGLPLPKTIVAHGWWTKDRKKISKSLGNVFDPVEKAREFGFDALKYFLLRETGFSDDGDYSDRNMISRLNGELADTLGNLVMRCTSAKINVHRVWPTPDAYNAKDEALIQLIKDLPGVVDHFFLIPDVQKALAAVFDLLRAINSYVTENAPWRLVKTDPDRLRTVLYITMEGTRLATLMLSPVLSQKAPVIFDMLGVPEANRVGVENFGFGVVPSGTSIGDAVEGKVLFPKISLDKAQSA
# Experiment summary: TcMetRS BIOMOL Green biochemical assay, 10-point dose response
# Condition info: 50 μM methionine, 100 μM ATP, 80 nM TcMetRS; read-out: TcMetRS pIC50 (converted)
Experimental endpoint: IC50

Answered examples (4):
Q. Please give the measured IC50 for this molecule: Cn1ncc2c(Nc3ccc(F)c(F)c3)nc(Nc3ccc(F)c(F)c3)nc21
A. > 100 µM

Q. Report IC50 for COC(=O)[C@H](Nc1nc(Nc2ccc(F)c(F)c2)nc2c1cnn2C)C(C)C please.
A. 10 µM

Q. Entry CN(CCO)c1nc(Nc2ccc(F)c(F)c2)nc2c1cnn2C : reported IC50 = ?
A. > 100 µM

Q. Any idea what its IC50 is? The molecule is CC(C)Oc1cc(Nc2nc(NCCO)c3cnn(C)c3n2)ccc1F
A. > 100 µM

More entries:
Q. Quick check: IC50 of COCCNc1nc(Nc2ccc(F)c(F)c2)nc2c1cnn2C ?
A. > 100 µM

Q. Query (molecule): Cn1ncc2c(NC3CCOCC3)nc(Nc3ccc(F)c(F)c3)nc21 ; field requested: IC50
A. > 100 µM

Q. Could you tell me which IC50 is on file for Cn1ncc2c(NC3CCCCC3O)nc(Nc3ccc(F)c(F)c3)nc21 (stereo not shown) ?
A. > 100 µM

Q. I am curious: what IC50 value has been reported for Cc1noc(CNc2nc(Nc3ccc(F)c(F)c3)nc3c2cnn3C)n1 ?
A. > 100 µM

Q. Query (molecule): COC(=O)C(Cc1c[nH]cn1)Nc1nc(Nc2ccc(F)c(F)c2)nc2c1cnn2C (stereo not shown) ; field requested: IC50
A. 2 µM
